Record form. Attribute: IC50. Fill in for each entry.
Target: GCN2 (Homo sapiens (Human), UniProt Q9P2K8)
Sequence (Q9P2K8 whole entry): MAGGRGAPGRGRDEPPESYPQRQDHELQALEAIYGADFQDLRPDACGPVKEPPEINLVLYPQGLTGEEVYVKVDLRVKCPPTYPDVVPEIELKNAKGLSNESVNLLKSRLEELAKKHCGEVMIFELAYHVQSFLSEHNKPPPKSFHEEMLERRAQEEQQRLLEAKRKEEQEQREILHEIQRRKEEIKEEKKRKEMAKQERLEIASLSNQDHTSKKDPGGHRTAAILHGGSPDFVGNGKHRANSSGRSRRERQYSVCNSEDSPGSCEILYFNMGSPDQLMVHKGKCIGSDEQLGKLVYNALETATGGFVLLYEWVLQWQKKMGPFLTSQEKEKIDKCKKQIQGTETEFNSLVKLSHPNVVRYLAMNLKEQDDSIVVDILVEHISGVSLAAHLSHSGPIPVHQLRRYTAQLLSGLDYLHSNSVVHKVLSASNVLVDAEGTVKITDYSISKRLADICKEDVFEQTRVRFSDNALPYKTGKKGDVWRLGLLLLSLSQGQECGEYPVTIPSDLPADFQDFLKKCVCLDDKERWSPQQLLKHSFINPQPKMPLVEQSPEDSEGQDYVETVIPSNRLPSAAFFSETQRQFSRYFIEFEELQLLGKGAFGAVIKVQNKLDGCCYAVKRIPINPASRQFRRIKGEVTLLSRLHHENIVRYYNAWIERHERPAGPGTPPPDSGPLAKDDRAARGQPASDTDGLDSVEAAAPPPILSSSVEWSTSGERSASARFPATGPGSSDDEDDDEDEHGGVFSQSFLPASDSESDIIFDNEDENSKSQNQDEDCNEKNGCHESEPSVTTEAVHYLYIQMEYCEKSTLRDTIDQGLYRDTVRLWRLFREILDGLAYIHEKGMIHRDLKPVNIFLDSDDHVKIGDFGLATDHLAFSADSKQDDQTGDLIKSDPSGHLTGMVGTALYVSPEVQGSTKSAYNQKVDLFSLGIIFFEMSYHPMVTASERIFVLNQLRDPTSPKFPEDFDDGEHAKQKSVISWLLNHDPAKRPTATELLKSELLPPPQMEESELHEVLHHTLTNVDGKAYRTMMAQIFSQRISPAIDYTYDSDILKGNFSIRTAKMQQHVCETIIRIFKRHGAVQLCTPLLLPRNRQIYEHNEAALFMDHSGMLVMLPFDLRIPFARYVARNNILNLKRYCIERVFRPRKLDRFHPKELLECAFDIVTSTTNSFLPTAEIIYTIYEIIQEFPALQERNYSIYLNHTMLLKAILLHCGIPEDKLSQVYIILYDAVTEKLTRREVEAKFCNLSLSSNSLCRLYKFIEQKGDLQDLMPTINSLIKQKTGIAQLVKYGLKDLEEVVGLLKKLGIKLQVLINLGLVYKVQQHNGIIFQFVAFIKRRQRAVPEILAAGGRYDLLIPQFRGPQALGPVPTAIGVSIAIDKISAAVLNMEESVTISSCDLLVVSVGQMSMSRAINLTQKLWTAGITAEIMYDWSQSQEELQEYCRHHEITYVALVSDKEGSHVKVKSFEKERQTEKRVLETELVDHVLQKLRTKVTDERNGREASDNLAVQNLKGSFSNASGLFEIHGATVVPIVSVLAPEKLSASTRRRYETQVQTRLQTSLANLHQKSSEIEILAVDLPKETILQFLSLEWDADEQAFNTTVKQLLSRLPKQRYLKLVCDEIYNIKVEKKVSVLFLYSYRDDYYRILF
Test: GCN2 Biochemical Assay (TR-FRET, GFP-eIF2S1 substrate phosphorylation)
Conditions: read-out: IC50 (GCN2 Inhibitory Activity)

Task item: Item under review: Cc1cnc(Nc2cc(C)n(C)n2)nc1-c1c[nH]c2c(N3Cc4c(NC(=O)c5ccnnc5)cccc4C3=O)cccc12 [Example 302] . Reported IC50?
Reply: < 10 nM

Task item: Dear colleague, I am looking for the recorded IC50 of the following compound: Cc1cnc(Nc2cc(C)n(C)n2)nc1-c1c[nH]c2c(NC(=O)CN3CC[C@H](Oc4ccnn4C)C3)cccc12 [Example 104]
Reply: < 10 nM

Task item: State the recorded IC50 for this entry: Cc1ccc(S(=O)(=O)Nc2cccc3c2CN(c2cccc4c(-c5nc(Nc6cc(C)n(C)n6)ncc5C)c[nH]c24)C3=O)cc1 [Example 343]
Reply: 10 to 100 nM

Task item: # IC50 lookup, item Cc1cnc(Nc2cc(C)n(C)n2)nc1-c1c[nH]c2c(N3Cc4c(Br)ccc(F)c4C3=O)cccc12 [Example 283]
Reply: < 10 nM

Task item: Give the measured IC50 of Cc1cnc(Nc2cc(C)n(C)n2)nc1-c1c[nH]c2c(N3Cc4c(NS(=O)(=O)C(C)C)cccc4C3=O)cccc12 [Example 344] .
Reply: < 10 nM

Task item: Suppose we examine the compound CCN(CC)c1ccnc(O[C@H]2CCN(CC(=O)Nc3cccc4c(-c5nc(Nc6cc(C)n(C)n6)ncc5C)c[nH]c34)C2)n1 [Example 172] ; what IC50 value has been reported?
Reply: < 10 nM

Task item: Look at this compound and give its reported IC50. Cc1cnc(Nc2cc(C)n(C)n2)nc1-c1c[nH]c2c(NC(=O)CN3CC[C@H](Oc4ccnc(NC5CCCCC5)n4)C3)cccc12 [Example 210]
Reply: 10 to 100 nM

Task item: Fill in: IC50 of Cc1cnc(Nc2cc(C)n(C)n2)nc1-c1c[nH]c2c(NC(=O)CN3CC[C@H](Oc4ccnc(NC5CC5)n4)C3)c(F)ccc12 [Example 1] is ___
Reply: < 10 nM

Task item: Recorded IC50 for Cc1cnc(Nc2cc(C)n(C)n2)nc1-c1c[nH]c2c(N3Cc4c(-c5ccccc5)ccc(I)c4C3=O)cccc12 [Example 492] , please?
Reply: 100 to 1000 nM

Task item: // query IC50 value for entry Cc1cnc(Nc2cc(C)n(C)n2)nc1-c1c[nH]c2c(N3Cc4c(cccc4-c4ccc(C(=O)N5CCC(=O)CC5)cc4)C3=O)cccc12 [Example 412]
Reply: < 10 nM

Task item: Looking for the measured IC50 of Cc1cnc(Nc2cc(C)n(C)n2)nc1-c1c[nH]c2c(NC(=O)CN3CC[C@H](Oc4cc(NCCCN(C)C)ncn4)C3)cccc12 [Example 148] , can you help?
Reply: < 10 nM

Task item: # get_value(readout='IC50', item= Cc1cnc(Nc2cc(C)n(C)n2)nc1-c1c[nH]c2c(NC(=O)CN3CC[C@H](Oc4cc(-c5cc(Cl)ccc5F)nc(N)n4)C3)cccc12 [Example 98] )
Reply: 100 to 1000 nM

Task item: What value of IC50 has been reported for the following compound? Cc1cnc(Nc2cc(C)n(C)n2)nc1-c1c[nH]c2c(N3Cc4c(cccc4-c4ccc(C#N)cc4F)C3=O)cccc12 [Example 433]
Reply: 10 to 100 nM

Task item: Dear colleague, I am looking for the recorded IC50 of the following compound: CCOC(=O)c1cnoc1O[C@H]1CCN(CC(=O)Nc2cccc3c(-c4nc(Nc5cc(C)n(C)n5)ncc4C)c[nH]c23)C1 [Example 121]
Reply: < 10 nM

Task item: Need IC50 of Cc1cnc(Nc2cc(C)n(C)n2)nc1-c1c[nH]c2c(N3Cc4c(cccc4-c4cncnc4)C3=O)cccc12 [Example 417] , thanks.
Reply: < 10 nM

Task item: Param item = Cc1cnc(Nc2cc(C)n(C)n2)nc1-c1c[nH]c2c(N3Cc4c(cccc4-c4ccnc(N(C)C)c4)C3=O)cccc12 [Example 475] ; retrieve measured IC50.
Reply: < 10 nM

Task item: State the recorded IC50 for this entry: Cc1cnc(Nc2cc(C)n(C)n2)nc1-c1c[nH]c2c(N3Cc4c(NC(=O)C5CC=CCC5)cccc4C3=O)cccc12 (centres unmarked) [Example 309]
Reply: 10 to 100 nM

Task item: Request the reported IC50 associated with Cc1cnc(Nc2cc(C)n(C)n2)nc1-c1c[nH]c2c(NC(=O)CN3CC[C@@H](C(=O)N4CCN(C)CC4)C3)cccc12 [Example 65]
Reply: 100 to 1000 nM

Task item: Returns the measured IC50 for the input compound. Input: Cc1cnc(Nc2cc(C)n(C)n2)nc1-c1c[nH]c2c(NC(=O)CN3CC[C@H](Oc4nc(NC5CCCCC5)ncc4F)C3)cccc12 [Example 228]
Reply: 10 to 100 nM

Task item: Any idea what IC50 was measured for Cc1cnc(Nc2cc(C)n(C)n2)nc1-c1c[nH]c2c(NC(=O)CN3CC[C@H](Oc4ncc(F)c(N)n4)C3)cccc12 [Example 176] ?
Reply: 10 to 100 nM

Task item: Requested read-out: IC50. Entry: Cc1cnc(Nc2cc(C)n(C)n2)nc1-c1c[nH]c2c(NC(=O)CN3CC[C@H](Oc4ncc(-c5ccncc5)cn4)C3)cccc12 [Example 256]
Reply: 10 to 100 nM

Task item: Looking for the measured IC50 of Cc1cnc(Nc2cc(C)n(C)n2)nc1-c1c[nH]c2c(NC(=O)CN3CC[C@H](Oc4cc(C5=CCC(C)(C)CC5)ncn4)C3)cccc12 [Example 250] , can you help?
Reply: 100 to 1000 nM

Task item: # lookup: IC50 of COc1ncccc1-c1cccc2c1CN(c1cccc3c(-c4nc(Nc5cc(C)n(C)n5)ncc4C)c[nH]c13)C2=O [Example 435]
Reply: < 10 nM

Task item: Would you mind telling me what IC50 value was observed for Cc1cnc(Nc2cc(C)n(C)n2)nc1-c1c[nH]c2c(NC(=O)CN3CC[C@H](Oc4cc(C(F)(F)F)nc(N)n4)C3)cccc12 [Example 99] ?
Reply: 10 to 100 nM

Task item: I would be grateful if you could share the reported IC50 for COC(=O)C1CN(CC(=O)Nc2cccc3c(-c4nc(Nc5cc(C)n(C)n5)ncc4C)c[nH]c23)C1 [Example 31] .
Reply: 10 to 100 nM

Task item: Look up IC50: Cc1cnc(Nc2cc(C)n(C)n2)nc1-c1c[nH]c2c(N3Cc4cccc(NCc5ccccc5)c4C3=O)cccc12 [Example 350]
Reply: 100 to 1000 nM

* * *

Exercise: state measured IC50 for each of the compounds provided.

Task item: Lab note: need IC50 with UniProt Q9P2K8 for entry `Cc1cnc(Nc2cc(C)n(C)n2)nc1-c1c[nH]c2c(N3Cc4c(-c5ccccc5)ccnc4C3=O)cccc12` , please look it up.
Reply: < 10 nM

Task item: Provide the documented IC50 with UniProt Q9P2K8 as the system for `Cc1cnc(Nc2cc(C)n(C)n2)nc1-c1c[nH]c2c(NC(=O)CN3CC[C@H](Oc4ccsc4C)C3)cccc12`
Reply: 10 to 100 nM

Task item: // lookup IC50 | system=UniProt Q9P2K8 | key= `Cc1cnc(Nc2cc(C)n(C)n2)nc1-c1c[nH]c2c(NC(=O)CN3CC[C@H](Oc4cnc(N5CCN(C)CC5)nc4)C3)cccc12`
Reply: 10 to 100 nM

Task item: Can you look up IC50 on UniProt Q9P2K8 for `COc1cnc(Nc2cc(C)n(C)n2)nc1-c1c[nH]c2c(NC(=O)CN3CC[C@H](Oc4ccnc(NC5CC5)n4)C3)cccc12` ?
Reply: < 10 nM

Task item: API: value(readout= IC50, system= UniProt Q9P2K8, query= `Cc1cnc(Nc2cc(C)n(C)n2)nc1-c1c[nH]c2c(N3Cc4c(cccc4-c4ccccc4-c4ccccc4)C3=O)cccc12` )
Reply: > 1000 nM

Task item: Notebook: pull reported IC50 for UniProt Q9P2K8, entry `Cc1cnc(Nc2cc(C)n(C)n2)nc1-c1c[nH]c2c(N3Cc4c(cccc4-c4ccncc4CO)C3=O)cccc12`
Reply: < 10 nM

Task item: Which measured IC50 belongs to `Cc1cnc(Nc2cc(C)n(C)n2)nc1-c1c[nH]c2c(NC(=O)CN3CC[C@H](Oc4ccnc(NCCCN(C)C)n4)C3)cccc12` , tested on UniProt Q9P2K8?
Reply: < 10 nM

* * *

Target: GCN2 (Homo sapiens (Human), UniProt Q9P2K8)
Assay: GCN2 Biochemical Assay (TR-FRET, GFP-eIF2S1 substrate phosphorylation)
Settings: read-out: IC50 (GCN2 Inhibitory Activity)
measured quantity: IC50

Task item: For the compound Cc1cnc(Nc2cc(C)n(C)n2)nc1-c1c[nH]c2c(N3Cc4c(/C=C/C(=O)N(C)C)ccc(F)c4C3=O)cccc12 [Example 359] , what IC50 is on record?
Reply: 10 to 100 nM

Task item: Look up IC50 for this compound: Cc1cnc(Nc2cc(C)n(C)n2)nc1-c1c[nH]c2c(N3Cc4c(NS(=O)(=O)c5ccccc5)cccc4C3=O)cccc12 [Example 341]
Reply: < 10 nM

Task item: Could you share which IC50 value was measured for CONc1nccc(O[C@H]2CCN(CC(=O)Nc3cccc4c(-c5nc(Nc6cc(C)n(C)n6)ncc5C)c[nH]c34)C2)n1 [Example 219] ?
Reply: < 10 nM

Task item: Param item = Cc1cnc(Nc2cc(C)n(C)n2)nc1-c1c[nH]c2c(N3Cc4c(cccc4C4=CCCCC4)C3=O)cccc12 [Example 391] ; retrieve measured IC50.
Reply: 10 to 100 nM

Task item: Any idea what IC50 was measured for Cc1cnc(Nc2cc(C)n(C)n2)nc1-c1c[nH]c2c(NC(=O)CN3CC[C@H](Oc4ccnc(NC5CC5)n4)C3=O)cccc12 [Example 60] ?
Reply: 10 to 100 nM

Task item: Suppose we examine the compound Cc1cnc(Nc2cc(C)n(C)n2)nc1-c1c[nH]c2c(NC(=O)CN3CC[C@H](Oc4nc(N)nc(N)n4)C3)cccc12 [Example 138] ; what IC50 value has been reported?
Reply: < 10 nM

Task item: Record request: IC50 value, item Cc1cnc(Nc2cc(C)n(C)n2)nc1-c1c[nH]c2c(NC(=O)CN3CC[C@H](Oc4cnc(-c5ccncc5)nc4)C3)cccc12 [Example 259]
Reply: 10 to 100 nM

Task item: Item Cc1cc(S(=O)(=O)Nc2cccc3c2CN(c2cccc4c(-c5nc(Nc6cc(C)n(C)n6)ncc5C)c[nH]c24)C3=O)ccc1F [Example 345] has what recorded IC50?
Reply: 10 to 100 nM

Task item: IC50 lookup needed for Cc1cnc(Nc2cc(C)n(C)n2)nc1-c1c[nH]c2c(N3Cc4cccc(Nc5ccccc5)c4C3=O)cccc12 [Example 346] , thanks.
Reply: 100 to 1000 nM

Task item: Reported IC50 for Cc1cnc(Nc2cc(C)n(C)n2)nc1-c1c[nH]c2c(NC(=O)CN3CC[C@H](Oc4ccnc(NC(C)C)n4)C3)cccc12 [Example 211] : what is it?
Reply: < 10 nM

Task item: Give the measured IC50 of Cc1cc(O[C@H]2CCN(CC(=O)Nc3cccc4c(-c5nc(Nc6cc(C)n(C)n6)ncc5C)c[nH]c34)C2)nc(NC2CC2)n1 [Example 236] .
Reply: < 10 nM

Task item: # IC50 lookup, item Cc1cnc(Nc2cc(C)n(C)n2)nc1-c1c[nH]c2c(NC(=O)CN3CC[C@H](Oc4cc(C(=O)N(C)C)on4)C3)cccc12 [Example 125]
Reply: 10 to 100 nM

Task item: Reported IC50 for Cc1cnc(Nc2cc(C)n(C)n2)nc1-c1c[nH]c2c(NC(=O)CN3CC[C@H](Oc4cccc(N)c4)C3)cccc12 [Example 89] : what is it?
Reply: 100 to 1000 nM

Task item: # get_value(readout='IC50', item= Cc1cnc(Nc2cc(C)n(C)n2)nc1-c1c[nH]c2c(NC(=O)C(=O)N3CC[C@H](Oc4ccnc(NC5CC5)n4)C3)cccc12 [Example 20] )
Reply: < 10 nM

Task item: GET /values?readout=IC50&item= Cc1cnc(Nc2cc(C)n(C)n2)nc1-c1c[nH]c2c(N3Cc4cccc(N5CCN(C)CC5)c4C3=O)cccc12 [Example 348]
Reply: 10 to 100 nM

Task item: Need IC50 of Cc1cnc(Nc2cc(C)n(C)n2)nc1-c1c[nH]c2c(NC(=O)CN3CC[C@H](Oc4ccnc(N)c4)C3)cccc12 [Example 90] , thanks.
Reply: < 10 nM

Task item: Give its IC50 value. Item: Cc1cnc(Nc2cc(C)n(C)n2)nc1-c1c[nH]c2c(NC(=O)CN3C[C@@H](F)[C@H](Oc4ccnc(NC5CC5)n4)C3)cccc12 [Example 53]
Reply: < 10 nM

Task item: Which IC50 is reported for this compound? Cc1cnc(Nc2cc(C)n(C)n2)nc1-c1c[nH]c2c(NC(=O)C(=O)N3CC[C@H](Oc4ccncc4)C3)cccc12 [Example 18]
Reply: 10 to 100 nM

Task item: Endpoint output: IC50 of Cc1cnc(Nc2cc(C)n(C)n2)nc1-c1c[nH]c2c(N3Cc4c(cccc4-c4ccnc(O)c4)C3=O)cccc12 [Example 446] . Value?
Reply: < 10 nM

Task item: Reported IC50 for Cc1cnc(Nc2cc(C)n(C)n2)nc1-c1c[nH]c2c(NC(=O)CN3CC[C@H](Oc4ccnc(NCC(F)F)n4)C3)cccc12 [Example 200] : what is it?
Reply: < 10 nM

Task item: Which IC50 is listed for Cc1cnc(Nc2cc(C)n(C)n2)nc1-c1c[nH]c2c(N3Cc4c(Br)cncc4C3=O)cccc12 [Example 289] ?
Reply: < 10 nM

Task item: So what's the measured IC50 for this one? Cc1cnc2c(c1)CN(c1cccc3c(-c4nc(Nc5cc(C)n(C)n5)ncc4C)c[nH]c13)C2=O [Example 287]
Reply: < 10 nM

Task item: Would you kindly share the measured IC50 for Cc1cnc(Nc2cc(C)n(C)n2)nc1-c1c[nH]c2c(NC(=O)CN3CC[C@H](Oc4nccc(C5=CCC(C)(C)CC5)n4)C3)cccc12 [Example 252] ?
Reply: 10 to 100 nM

Task item: What value of IC50 has been reported for the following compound? Cc1cnc(Nc2cc(C)n(C)n2)nc1-c1c[nH]c2c(NC(=O)CN3CC[C@H](Oc4cncc(N)n4)C3)cccc12 [Example 92]
Reply: < 10 nM

Task item: Tell me the measured IC50 of Cc1cnc(Nc2cc(C)n(C)n2)nc1-c1c[nH]c2c(NC(=O)CN3CC[C@H](Oc4nccc(NC5CC5)n4)C3)cccc12 [Example 175] , please.
Reply: < 10 nM

Task item: Query (compound): Cc1cnc(Nc2cc(C)n(C)n2)nc1-c1c[nH]c2c(N3C(=O)c4cccc(F)c4C3=O)cccc12 [Example 261] ; field requested: IC50
Reply: < 10 nM
